System: Staphylococcus aureus
Experiment: Induction of membrane morphological changes in methicillin-resistant Staphylococcus aureus ATCC 4330 assessed as visible cell surface wrinkles at 4X MIC after 2 hrs by scanning electron microscopy
Format: functional
Calls of active or inactive are those of the source. The calls are words filed in the database; no cut-off is given here.
quantityKind: Activity

1) O=C(Nc1cccc2ccccc12)c1ccc2[nH]c3c4[n+](ccc3c2c1)-c1ccccc1C4=O.[Br-]    Active
2) O=C1c2ccccc2-[n+]2ccc3c([nH]c4ccccc43)c21    Active
3) Cc1ccc2[nH]c3c4[n+](ccc3c2c1)-c1ccccc1C4=O    Active
4) O=C1c2ccccc2-[n+]2ccc3c([nH]c4ccc(Br)cc43)c21.[Br-]    Active

====

System: Staphylococcus aureus
Assay: Bactericidal activity against methicillin-resistant Staphylococcus aureus ATCC 4330 assessed as reduction in bacterial counts at 2X MIC within 0.5 hrs by time-kill kinetic assay
Assay type: functional
quantityKind: Activity (log10CFU/ml)
Numeric answer only, unit log10CFU/ml assumed.

1) Cc1ccc2[nH]c3c4[n+](ccc3c2c1)-c1ccccc1C4=O.[Cl-]    0.1
2) CCCCNC(=O)c1ccc2[nH]c3c4[n+](ccc3c2c1)-c1ccccc1C4=O.[Br-]    0.5

Could you now consider this next molecule?
Data request: Given the molecule O=C1c2ccccc2-[n+]2ccc3c([nH]c4ccccc43)c21.[Cl-] [FASCAPLYSIN CHLORIDE] , what is its reported Activity?
Data returned: 0

====

Assay: Toxicity in female ICR peritonitis mouse model infected with methicillin-resistant Staphylococcus aureus ATCC 4330 assessed as kidney damage at 10 mg/kg, ip
Assay type: organism-based
Conditions: in vivo
quantityKind: Activity

1) Cc1ccc2[nH]c3c4[n+](ccc3c2c1)-c1ccccc1C4=O.[Br-]    Non-Toxic
2) O=C(Nc1cccc2ccccc12)c1ccc2[nH]c3c4[n+](ccc3c2c1)-c1ccccc1C4=O.[Br-]    Non-Toxic
3) O=C1c2ccccc2-[n+]2ccc3c([nH]c4ccc(Br)cc43)c21.[Br-]    Non-Toxic
4) O=C1c2ccccc2-[n+]2ccc3c([nH]c4ccccc43)c21.[Br-]    Non-Toxic

====

Tested on: Staphylococcus aureus
Assay: Antimicrobial activity against methicillin-resistant Staphylococcus aureus ATCC 4330 infected in female ICR peritonitis mouse model assessed as reduction in bacteria in blood at 10 mg/kg, ip
Assay type: functional
Active and inactive are the calls of the source. No cut-off for these calls is given here.
quantityKind: Activity

1) O=C1c2ccccc2-[n+]2ccc3c([nH]c4ccccc43)c21    Active
2) O=C1c2ccccc2-[n+]2ccc3c([nH]c4ccc(Br)cc43)c21.[Br-]    Active
3) O=C(Nc1cccc2ccccc12)c1ccc2[nH]c3c4[n+](ccc3c2c1)-c1ccccc1C4=O.[Br-]    Active
4) Cc1ccc2[nH]c3c4[n+](ccc3c2c1)-c1ccccc1C4=O.[Br-]    92%

====

Assay: Cytotoxicity against mouse RAW264.7 cells assessed as cell survival at 25 ug/ml incubated for 24 hrs by CCK-8 assay
Assay type: toxicity, cell-based
Details: at 25 µg/mL, read-out: Activity
quantityKind: viability at 24 h, 25 ug/ml (%)
Numeric answer only, unit % assumed.

1. O=C1c2ccccc2-[n+]2ccc3c([nH]c4ccc(Br)cc43)c21.[Br-]    86.5

Data request: Given the compound `Cc1ccc2[nH]c3c4[n+](ccc3c2c1)-c1ccccc1C4=O.[Br-]` , what is its reported viability at 24 h, 25 ug/ml?
Data returned: 56.3

Data request: Given the compound `O=C1c2ccccc2-[n+]2ccc3c([nH]c4ccccc43)c21.[Br-]` , what is its reported viability at 24 h, 25 ug/ml?
Data returned: 100
